Tested on: colon cancer HT-29 cell line
Assay: MTT cytotoxicity assay, colon cancer HT-29 cell line
Type: cell-based
Settings: Homo sapiens, 72 h, mean ± SD
Entries whose IC50 is below 2 nM take yes; entries at or above 2 nM take no.

Please review the following examples before continuing.
> print(dat)
                                   molecule  assigned.label
1  C#CCn1cnc(/C=c2\[nH]c(=O)/c(=C/c3cccc(C(=O)c4ccc(F)cc4)c3)[nH]c2=O)c1C(C)C [15q]             yes
2  C=CCn1cnc(/C=c2\[nH]c(=O)/c(=C/c3cccc(C(=O)c4ccc(F)cc4)c3)[nH]c2=O)c1C(C)C [15p]             yes
3  CCCCn1cnc(/C=c2\[nH]c(=O)/c(=C/c3cccc(Oc4ccc(F)cc4)c3)[nH]c2=O)c1C(C)C [15j]              no
4  CC(C)(C)c1[nH]cnc1/C=c1\[nH]c(=O)/c(=C/c2ccccc2)[nH]c1=O              no
5  CC(C)c1c(/C=c2\[nH]c(=O)/c(=C/c3cccc(C(=O)c4ccc(F)cc4)c3)[nH]c2=O)ncn1CCCN [16d]              no

# check: IC50 < 2 nM for CC(C)c1c(/C=c2\[nH]c(=O)/c(=C/c3cccc(C(=O)c4ccc(F)cc4)c3)[nH]c2=O)ncn1CCN [16b] no

====

Parameter: melting point. Scope: all listed entries.

The examples below pair each entry with its known result.
> print(dat)
                                    molecule  measured.value
 1  C=CCn1cnc(/C=c2\[nH]c(=O)/c(=C/c3cccc(C(=O)c4ccc(F)cc4)c3)[nH]c2=O)c1C(C)C [15p]   200 to 202 °C
 2  CC(C)c1c(/C=c2\[nH]c(=O)/c(=C/c3cccc(C(=O)c4ccc(F)cc4)c3)[nH]c2=O)ncn1CCCN [16d]   199 to 201 °C
 3  CCCn1cnc(/C=c2\[nH]c(=O)/c(=C/c3cccc(Oc4ccc(F)cc4)c3)[nH]c2=O)c1C(C)C [15h]   201 to 203 °C
 4  Cc1c(/C=c2\[nH]c(=O)/c(=C/c3cccc(C(=O)c4ccc(F)cc4)c3)[nH]c2=O)ncn1CCCN [16c]   247 to 248 °C
 5  CC(C)c1c(/C=c2\[nH]c(=O)/c(=C/c3cccc(C(=O)c4ccc(F)cc4)c3)[nH]c2=O)ncn1CCCNC(=O)OC(C)(C)C [15o]   179 to 180 °C
 6  CC(C)c1c(/C=c2\[nH]c(=O)/c(=C/c3cccc(Oc4ccc(F)cc4)c3)[nH]c2=O)ncn1C [15b]   218 to 219 °C
 7  Cc1c(/C=c2\[nH]c(=O)/c(=C/c3cccc(C(=O)c4ccc(F)cc4)c3)[nH]c2=O)ncn1CCCNC(=O)OC(C)(C)C [15n]   206 to 208 °C
 8  CC(C)c1c(/C=c2\[nH]c(=O)/c(=C/c3cccc(C(=O)c4ccc(F)cc4)c3)[nH]c2=O)ncn1CCNC(=O)OC(C)(C)C [15m]   204 to 206 °C
 9  CCCn1cnc(/C=c2\[nH]c(=O)/c(=C/c3cccc(C(=O)c4ccc(F)cc4)c3)[nH]c2=O)c1C(C)C [15i]   200 to 202 °C
10  Cc1c(/C=c2\[nH]c(=O)/c(=C/c3cccc(C(=O)c4ccc(F)cc4)c3)[nH]c2=O)ncn1C [15a]   224 to 226 °C

Requested field: melting point. Item: CCCn1cnc(/C=c2\[nH]c(=O)/c(=C/c3cccc(C(=O)c4ccc(F)cc4)c3)[nH]c2=O)c1C [15g] 214 to 216 °C

Requested field: melting point. Item: CC(C)c1c(/C=c2\[nH]c(=O)/c(=C/c3cccc(C(=O)c4ccc(F)cc4)c3)[nH]c2=O)ncn1C [15c] 225 to 227 °C

Requested field: melting point. Item: CC(C)c1c(/C=c2\[nH]c(=O)/c(=C/c3cccc(C(=O)c4ccc(F)cc4)c3)[nH]c2=O)ncn1CCN [16b] 190 to 192 °C

Requested field: melting point. Item: CCCCn1cnc(/C=c2\[nH]c(=O)/c(=C/c3cccc(C(=O)c4ccc(F)cc4)c3)[nH]c2=O)c1C(C)C [15k] 198 to 201 °C

====

Tested on: pancreatic cancer BxPC-3 cell line
Test: MTT cytotoxicity assay, pancreatic cancer BxPC-3 cell line
Type: cell-based
Settings: Homo sapiens, 72 h, mean ± SD
Entries whose IC50 is below 3 nM take T; entries at or above 3 nM take F.

Please review the following examples before continuing.
> print(dat)
                                   compound                   system.under.test  assigned.label
1  CC(C)c1c(/C=c2\[nH]c(=O)/c(=C/c3cccc(C(=O)c4ccc(F)cc4)c3)[nH]c2=O)ncn1CCN [16b]  pancreatic cancer BxPC-3 cell line               F
2  CCCCn1cnc(/C=c2\[nH]c(=O)/c(=C/c3cccc(Oc4ccc(F)cc4)c3)[nH]c2=O)c1C(C)C [15j]  pancreatic cancer BxPC-3 cell line               T

# check: IC50 < 3 nM for C=CCn1cnc(/C=c2\[nH]c(=O)/c(=C/c3cccc(C(=O)c4ccc(F)cc4)c3)[nH]c2=O)c1C(C)C [15p] T

# check: IC50 < 3 nM for "CC(C)(C)c1[nH]cnc1/C=c1\[nH]c(=O)/c(=C/c2ccccc2)[nH]c1=O" F

# check: IC50 < 3 nM for C#CCn1cnc(/C=c2\[nH]c(=O)/c(=C/c3cccc(C(=O)c4ccc(F)cc4)c3)[nH]c2=O)c1C(C)C [15q] T

# check: IC50 < 3 nM for CC(C)c1c(/C=c2\[nH]c(=O)/c(=C/c3cccc(C(=O)c4ccc(F)cc4)c3)[nH]c2=O)ncn1CCCN [16d] T

====

RESULT_TYPE: melting point

The examples below pair each entry with its known result.
> print(dat)
                                   compound    result.type  measured.value
1  CCn1cnc(/C=c2\[nH]c(=O)/c(=C/c3cccc(C(=O)c4ccc(F)cc4)c3)[nH]c2=O)c1C(C)C [15f]  melting point   234 to 236 °C
2  CCn1cnc(/C=c2\[nH]c(=O)/c(=C/c3cccc(C(=O)c4ccc(F)cc4)c3)[nH]c2=O)c1C [15d]  melting point   227 to 229 °C
3  Cc1c(/C=c2\[nH]c(=O)/c(=C/c3cccc(C(=O)c4ccc(F)cc4)c3)[nH]c2=O)ncn1CCNC(=O)OC(C)(C)C [15l]  melting point   189 to 191 °C
4  C#CCn1cnc(/C=c2\[nH]c(=O)/c(=C/c3cccc(C(=O)c4ccc(F)cc4)c3)[nH]c2=O)c1C(C)C [15q]  melting point   150 to 152 °C
5  CCn1cnc(/C=c2\[nH]c(=O)/c(=C/c3cccc(Oc4ccc(F)cc4)c3)[nH]c2=O)c1C(C)C [15e]  melting point   195 to 198 °C

Requested field: melting point. Item: CCCCn1cnc(/C=c2\[nH]c(=O)/c(=C/c3cccc(Oc4ccc(F)cc4)c3)[nH]c2=O)c1C(C)C [15j] 203 to 204 °C

Requested field: melting point. Item: Cc1c(/C=c2\[nH]c(=O)/c(=C/c3cccc(C(=O)c4ccc(F)cc4)c3)[nH]c2=O)ncn1CCN [16a] 180 to 182 °C

====

Assay: Stability of liver microsomal metabolism
Format: in vitro ADME, rat
Details: Wistar, rat, rat liver microsomes, rat liver microsomes 0.5 mg/mL, 1 μmol/L, 37 °C; read-out: CLint (intrinsic clearance)
RESULT_TYPE: CLint scaled at 1 μmol/L (mL/min/kg)
Number only, in mL/min/kg; omit the unit.

Requested field: CLint scaled at 1 μmol/L. Item: C=CCn1cnc(/C=c2\[nH]c(=O)/c(=C/c3cccc(C(=O)c4ccc(F)cc4)c3)[nH]c2=O)c1C(C)C [15p] 772
